TGI reference
System: SK-MEL-5 melanoma
Assay: NCI tumour cell line growth inhibition, 48 h
attribute_measured: TGI

C/C(CC/C(C)=N/O)=N\O ... > 100 µM
OC1[C@H]([C@H]2CCCC[C@@H]2O)CCC[C@@H]1[C@@H]1CCCC[C@H]1O (some centres not stated) ... > 100 µM
O=C(O)C/C(=C\c1ccco1)C(=O)O ... > 100 µM
COc1c(C=O)c2c(c(OC)c1OC)-c1ccc(OC)c(=O)cc1[C@@H](NC(C)=O)CC2 ... 0.272 µM
COc1cc2c(cc1O)CC[C@@H]1[C@@H]2CC[C@]2(C)[C@@H](NCCN(C)C)CC[C@@H]12 ... 0.166 µM
COC(=O)CCc1cc(OC)c(O)c(C(Cc2ccc(OC)c(OC)c2)C(=O)OC)c1 (configuration not stated) ... > 100 µM
COC(=O)c1c2c(cc3c1CC1(Cc4cc5c(c(C=O)c4C1)CCCC5)C3)CCCC2 (configuration not stated) ... > 100 µM
CC(C)/C=C1\CCC(CN2CCCC2)C1=O (configuration not stated) ... 33.2 µM
Cc1ccc(-c2nc(C)c(C(=O)Nc3ccc(Cl)cc3)s2)cc1 ... 41.7 µM
CC(C)(C)NNC(=O)/C(=C/c1ccc([N+](=O)[O-])cc1)NC(=O)c1ccccc1 ... > 100 µM
COc1cccc2c1C(=O)C=CC2=O ... 30.3 µM
CCC(C#N)(c1ccccc1)N(CCc1ccccc1)C(=O)c1ccccc1 (configuration not stated) ... > 100 µM
N#Cc1c(-c2ccccc2)nc(SCC2CO2)nc1N1CCOCC1 (configuration not stated) ... > 100 µM
COc1cc2c3c(n(CCCN)c(=O)c2cc1OC)-c1ccccc1C3=O ... 19.8 µM
CC(=N\N)/C(C)=N/N=C(C)/C(C)=N/N=C(C)/C(C)=N/N=C(C)/C(C)=N/N ... > 100 µM
COc1cc(C2SCC(=O)N2c2cc(Cl)c(Cl)cc2Cl)cc(OC)c1OC (configuration not stated) ... > 100 µM
OCC1OC(n2nc(-c3ccccc3)nc2-c2cnccn2)C(O)C(O)C1O (configuration not stated) ... > 100 µM
NC(=O)c1nnc2ccc(F)cc2c1N ... > 100 µM
COc1ccc2oc(=O)cc(C(c3ccc[nH]3)c3ccc[nH]3)c2c1 ... 0.141 µM
O=C1OC[C@@H]2[C@@H](O)CCCCCN12 ... > 100 µM
CCOC(=O)c1ccc(Nc2cnc3cc(C(F)(F)F)ccc3n2)cc1 ... > 100 µM
COc1cccc(C2c3cc4c(cc3OC(C)(N3CCCC3)C2C)OCO4)c1OC (configuration not stated) ... 28.4 µM

Source: PubChem BioAssay (NCI)
